- System tested: human dopamine transporter (Homo sapiens (Human))
- Sequence (Q01959 whole entry): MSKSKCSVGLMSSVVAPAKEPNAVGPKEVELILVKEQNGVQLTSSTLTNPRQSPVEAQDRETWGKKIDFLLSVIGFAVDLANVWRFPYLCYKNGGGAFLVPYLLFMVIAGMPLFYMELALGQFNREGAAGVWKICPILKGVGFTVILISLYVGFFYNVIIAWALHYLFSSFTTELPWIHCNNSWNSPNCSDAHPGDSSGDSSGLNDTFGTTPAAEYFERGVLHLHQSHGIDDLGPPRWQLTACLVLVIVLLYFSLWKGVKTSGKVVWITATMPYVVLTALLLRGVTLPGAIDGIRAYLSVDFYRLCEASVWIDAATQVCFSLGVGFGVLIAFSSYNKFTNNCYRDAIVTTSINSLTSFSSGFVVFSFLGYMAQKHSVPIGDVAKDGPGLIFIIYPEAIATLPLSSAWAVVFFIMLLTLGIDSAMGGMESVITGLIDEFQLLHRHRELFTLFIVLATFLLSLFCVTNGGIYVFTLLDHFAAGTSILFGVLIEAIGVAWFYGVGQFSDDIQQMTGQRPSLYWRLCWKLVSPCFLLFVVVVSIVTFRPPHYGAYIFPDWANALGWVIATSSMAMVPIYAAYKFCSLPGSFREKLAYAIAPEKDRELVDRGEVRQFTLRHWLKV
- Test description: Human DAT (dopamine transporter) uptake assay
- Type: cell-based
- Assay context: read-out: hDAT Ki
pKi: −log10 of the molar value.
Result type: pKi

Solved entries:
CNC[C@H](c1ccc2ccccc2c1)[C@@H](O)c1cc(F)cc(F)c1 [Compound 141]; 7.04
CNC[C@H](c1ccc2ccccc2c1)[C@@H](Cl)c1ccccc1 [Compound 61]; 7.84
CCNC(=O)CO[C@H](c1ccccc1)[C@H](CNC)c1ccc2ccccc2c1 [Compound 6]; 7.41
CNC[C@H](c1ccc2ccccc2c1)[C@H](OCC(=O)NCCO)c1ccccc1 [Compound 14]; 7.10
CNC[C@H](c1ccc2ccccc2c1)[C@H](O)c1ccccc1C [Compound 28]; 7.36

P. CNC[C@@H](c1ccc(Cl)c(Cl)c1)[C@@H](O)c1cccc(N(C)C)c1 (single isomer, unassigned) [Compound 108]
Q. CN1CCO[C@@H](c2ccccc2)[C@H](c2ccc3ccccc3c2)C1 [Compound 124]
R. CNC[C@H](c1ccc(-c2ccccc2)cc1)[C@H](O)c1ccccc1 (racemic) [Compound 113]
Write the entries in order, lowest recorded pKi first. Your reply should list the labels following the order given in the request.
R, P, Q
